src = paper PMC2756588

# measured-on: T1, Boi1, P38041
# T1 sequence (P38041 1-86, looked up): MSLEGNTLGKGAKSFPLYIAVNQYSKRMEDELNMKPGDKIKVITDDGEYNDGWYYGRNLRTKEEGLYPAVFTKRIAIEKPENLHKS
# assay-protocol: SPOT array
# run-conditions: median of control spots 1162
outcome-measure: SPOT intensity
// keep it numeric: no unit symbol after the value

QLLNPNRRAPRRPLS 5
LASNSPPVYPKRIRH 0
AATTSTPPLPRRRAT 0
RPVPPPPPMRTTTEG 0
GTIARPLFLVVLFFI 4
VGFRLALKFPSRITG 152
LKRITSPPLPPRADS 1
RRARRQMGIPTISQV 3

Looking for the measured SPOT intensity of `NLPKRKPPKLQGPFS` , can you help?
2

Looking for the measured SPOT intensity of `KDKSRPPRPPPKPLH` , can you help?
2

Looking for the measured SPOT intensity of `YYNRQELALPKRMSS` , can you help?
1
